These data points were gathered from the supplement of paper PMC13380429.

# Test system: Calu-3
# PROTOCOL_TEXT: cell viability relative to DMSO; higher = less toxic
# APPLIED_CONDITIONS: 72 h; 10 nM
MEASURE_NAME: cell viability (%)

>  <COMPOUND_STRUCTURE>
CCOc1ccc(C[C@H]2NC(=O)CCSSC[C@@H](C(=O)N3CCC[C@H]3C(=O)N[C@@H](CCCN)C(=O)NCC(N)=O)NC(=O)[C@H](CC(N)=O)NC(=O)[C@H]([C@@H](C)O)NC(=O)[C@H]([C@@H](C)CC)NC2=O)cc1

>  <TARGET_OR_TEST_SYSTEM>
Calu-3

>  <UNITS_LABEL>
%

>  <RECORDED_VALUE>
105

$$$$
>  <COMPOUND_STRUCTURE>
NC(=O)c1ccc(-c2nc(-c3ccc4c(c3)OCCO4)c(-c3ccccn3)[nH]2)cc1

>  <TARGET_OR_TEST_SYSTEM>
Calu-3

>  <UNITS_LABEL>
%

>  <RECORDED_VALUE>
101

$$$$
>  <COMPOUND_STRUCTURE>
COc1ccc(CNC(=O)Nc2ncc([N+](=O)[O-])s2)cc1

>  <TARGET_OR_TEST_SYSTEM>
Calu-3

>  <UNITS_LABEL>
%

>  <RECORDED_VALUE>
107

$$$$

====

# Tested on: U2OS
# PROTOCOL_TEXT: cell viability relative to DMSO; higher = less toxic
# APPLIED_CONDITIONS: 72 h; 10 nM

>  <COMPOUND>
CC(=O)OCC(=O)[C@@]1(O)CC[C@H]2[C@@H]3CCC4=CC(=O)C=C[C@]4(C)[C@@]3(F)[C@@H](O)C[C@@]21C [isoflupredone-acetate]

>  <cell viability, %>
98.2

$$$$
>  <COMPOUND>
CC(C)c1ccc2oc3nc(N)c(C(=O)O)cc3c(=O)c2c1

>  <cell viability, %>
94.3

$$$$
>  <COMPOUND>
Oc1cc(O)cc(O)c1

>  <cell viability, %>
98.3

$$$$
>  <COMPOUND>
C[C@@H]1O[C@@H](O[C@H]2[C@H](Oc3cc(O)c4c(c3)O[C@H](c3ccc(O)cc3)CC4=O)O[C@H](CO)[C@@H](O)[C@@H]2O)[C@H](O)[C@H](O)[C@H]1O [Naringin (Naringoside)]

>  <cell viability, %>
94.7

$$$$
>  <COMPOUND>
O=C(O)C(=O)Nc1cccc(-c2nnn[nH]2)c1

>  <cell viability, %>
98.4

$$$$
>  <COMPOUND>
CCOc1ccc(Cc2cc([C@]34OC[C@](CO)(O3)[C@@H](O)[C@H](O)[C@H]4O)ccc2Cl)cc1

>  <cell viability, %>
102

$$$$
>  <COMPOUND>
C=C(c1ccccc1OCc1cccc(Cl)c1)n1ccnc1

>  <cell viability, %>
104

$$$$
>  <COMPOUND>
NC(=O)c1cccc(-c2cc(Nc3ccc(OC(F)(F)F)cc3)ncn2)c1

>  <cell viability, %>
99.2

$$$$
>  <COMPOUND>
NC(=O)c1ccc(-c2nc(-c3ccc4c(c3)OCCO4)c(-c3ccccn3)[nH]2)cc1

>  <cell viability, %>
97.9

$$$$
>  <COMPOUND>
C[C@H]1O[C@@H](n2cc(F)c(=O)[nH]c2=O)[C@H](O)[C@@H]1O

>  <cell viability, %>
99.4

$$$$
>  <COMPOUND>
NCC(=O)N[C@@H](CCC(N)=O)C(=O)O

>  <cell viability, %>
95.4

$$$$
>  <COMPOUND>
Cc1ccc(S(=O)(=O)/C=C/C#N)cc1

>  <cell viability, %>
98.7

$$$$
>  <COMPOUND>
C=C[C@]1(C)CC[C@@H](C(=C)C)C[C@H]1C(=C)C

>  <cell viability, %>
98

$$$$
>  <COMPOUND>
C[C@]12CC[C@H](O)C[C@H]1CC[C@@H]1[C@@H]2C[C@@H](O)[C@]2(C)[C@@H](C3=CC(=O)OC3)CC[C@]12O

>  <cell viability, %>
105

$$$$
>  <COMPOUND>
CCC(=O)N1CCN(c2ccc(-n3c(=O)ccc4cnc5ccc(-c6cnc7ccccc7c6)cc5c43)cc2C(F)(F)F)CC1

>  <cell viability, %>
103

$$$$
>  <COMPOUND>
CCCCCCCCCCCCCCC[C@@H](O)[C@@H](N)CO

>  <cell viability, %>
97.9

$$$$
>  <COMPOUND>
CC(C)C[C@H](NC(=O)[C@H](Cc1ccccc1)NC(=O)c1cnccn1)B(O)O

>  <cell viability, %>
63.9

$$$$
